Conditions: in dichloromethane, 325 K
Metric: solubility (mole fraction)
// return a plain number; no unit text

According to the records, this molecule CO[C@H]1C[C@@H]2CC[C@@H](C)[C@@](O)(O2)C(=O)C(=O)N2CCCC[C@H]2C(=O)O[C@H]([C@H](C)C[C@@H]2CC[C@@H](O)[C@H](OC)C2)CC(=O)[C@H](C)/C=C(\C)[C@@H](O)[C@@H](OC)C(=O)[C@H](C)C[C@H](C)/C=C/C=C/C=C/1C displays solubility (mole fraction) of 0.00306

----------
Conditions: in chloroform, 315 K
Metric: solubility (mole fraction)
// no unit string in output, number only

solubility (mole fraction) reading for CO[C@H]1C[C@@H]2CC[C@@H](C)[C@@](O)(O2)C(=O)C(=O)N2CCCC[C@H]2C(=O)O[C@H]([C@H](C)C[C@@H]2CC[C@@H](O)[C@H](OC)C2)CC(=O)[C@H](C)/C=C(\C)[C@@H](O)[C@@H](OC)C(=O)[C@H](C)C[C@H](C)/C=C/C=C/C=C/1C : 0.00346
